From: PubChem BioAssay (EPA / NIEHS)

- Read-out: Macrophage colony-stimulating factor (MCSF), CSF1 (gene 1435)
- Assay Info: BSK_LPS_MCSF: BioMAP Diversity Plus: LPS Assay for Macrophage colony-stimulating factor (MCSF) Biomarker Activity (AID 2283083)
- Settings: primary human HUVEC with PBMC; actives raise or lower the signal
Activity calls are given as the source filed them. How the source made its calls: active means hit-call score of the fitted dose curve at least 0.9, where 1 is the maximum; inactive means score below 0.9.
Measure Name: AC50

1) CCC(C)(C)C(=O)OC1=C(c2ccc(Cl)cc2Cl)C(=O)OC12CCCCC2 :: 17.5 µM (active)
2) CCCN(CCOc1c(Cl)cc(Cl)cc1Cl)C(=O)n1ccnc1 :: 20 µM (active)
3) OCCOc1ccccc1 :: inactive
4) O=C(O)C(F)(F)C(F)(F)C(F)(F)C(F)(F)C(F)(F)C(F)(F)C(F)(F)F :: inactive
5) ClC1C(Cl)C(Cl)C(Cl)C(Cl)C1Cl (stereo unspecified) :: inactive

Let's switch to this compound now.
What the record says about Cc1cc(C)nc(NC(=O)NS(=O)(=O)c2ccccc2C(=O)OC2COC2)n1 : AC50 is 0.331 µM (active)
